# credit: ChEMBL document CHEMBL1150480

Target: Beta-galactoside alpha-2,6-sialyltransferase 1 (Rattus norvegicus) (UniProt P13721)
Sequence (whole entry): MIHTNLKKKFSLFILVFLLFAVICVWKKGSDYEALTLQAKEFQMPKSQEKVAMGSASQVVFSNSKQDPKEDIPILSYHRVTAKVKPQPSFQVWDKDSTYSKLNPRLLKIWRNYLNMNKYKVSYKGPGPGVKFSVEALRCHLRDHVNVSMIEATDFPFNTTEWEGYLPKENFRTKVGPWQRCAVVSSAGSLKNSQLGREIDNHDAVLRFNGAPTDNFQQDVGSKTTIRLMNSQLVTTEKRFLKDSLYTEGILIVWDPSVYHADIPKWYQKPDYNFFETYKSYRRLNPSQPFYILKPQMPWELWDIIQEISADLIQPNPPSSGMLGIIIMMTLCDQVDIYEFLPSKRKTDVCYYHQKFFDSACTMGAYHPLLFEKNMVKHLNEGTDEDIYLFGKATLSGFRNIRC
Test: Evaluation of kinetic constant for rat liver GaI-beta-1,4GIcNAc alpha2,6-sialyltransferase in presence of compound
ASSAY ENDPOINT: Relative Vmax

// below: answered molecules
>  <MOLECULE>
NCC(=O)NC1C(O)CC(OP(=O)(O)OC[C@H]2OC(n3ccc(N)nc3=O)[C@H](O)[C@@H]2O)(C(=O)O)OC1[C@H](O)C(O)CO (stereo not given in full)

>  <Relative Vmax>
1

$$$$
>  <MOLECULE>
CC(=O)NC1C(O)CC(OP(=O)(O)OC[C@H]2OC(n3ccc(N)nc3=O)[C@H](O)[C@@H]2O)(C(=O)O)OC1[C@H](O)[C@H](O)CNC(=O)c1ccc(N=[N+]=[N-])cc1 (stereo not given in full)

>  <Relative Vmax>
0.9

$$$$
>  <MOLECULE>
CC(=O)NC1C(O)CC(OP(=O)(O)OC[C@H]2OC(n3ccc(N)nc3=O)[C@H](O)[C@@H]2O)(C(=O)O)OC1[C@H](O)[C@H](O)CNC(=O)c1ccc(N=[N+]=[N-])cc1O (stereo not given in full)

>  <Relative Vmax>
1.1

$$$$

(A) CC(=O)NC1C(O)CC(OP(=O)(O)OC[C@H]2OC(n3ccc(N)nc3=O)[C@H](O)[C@@H]2O)(C(=O)O)OC1[C@H](O)[C@H](O)CNC(=O)c1ccc(C(=O)c2ccccc2)cc1 (stereo not given in full)
(B) [N-]=[N+]=Nc1ccc(C(=O)NCC(=O)NC2C(O)CC(OP(=O)(O)OC[C@H]3OC(n4ccc(N)nc4=O)[C@H](O)[C@@H]3O)(C(=O)O)OC2[C@H](O)[C@H](O)CO)cc1 (stereo not given in full)
## Task Would you kindly point out which of A and B has the smaller Relative Vmax figure? // return label of chosen record
## Result B
